target: NADPH oxidase 2 (Homo sapiens); assay: NOX2-dependent H2O2 signal modulators, primary screen, NOX inhibitor project, cell-based, HEK293-NOX2, PMA-stimulated, Amplex Red fluorescence (AID 1159); conditions: 45 min, higher = more signal, called active from +8 up or from −8 down; further: test concentration not given here
# key: entry, value: z-score
// response body must contain only the number

Query string: Specify reported z-score for the compound shown: COCCCNC(=O)[C@@]1(Cc2ccccc2I)c2ccccc2C(=O)N(Cc2ccccc2OC)[C@H]1c1ccc(CO)cc1
Result string: -1.68

Query string: Specify reported z-score for the compound shown: NCCCCCCNC(=O)[C@@H]1C[C@@H]2C(=O)NCC(=O)N2[C@@H]1c1cccc(OCCO)c1
Result string: 1.29

Query string: Specify reported z-score for the compound shown: COc1cc(CO)cc(I)c1O[C@H]1C=C(C(=O)NCCO)C[C@@H](N(CCN2CCOCC2)C(=O)C2CCCO2)[C@@H]1O (stereo partly drawn)
Result string: -0.842

Query string: Specify reported z-score for the compound shown: O=C1C2C=CC(C(O)C3CCCCC3)N(Nc3ccccc3F)C2C(=O)N1c1ccccc1 (stereo not drawn)
Result string: -2.64

---

experiment: fission yeast growth modulation, primary screen, strain 972, OD600, 24 h, no modulator (AID 1090);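 further: basal condition with compound alone and no growth modifier present; test concentration not given here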; settings: S. pombe 972 growth, higher = more signal, called active from +8 up or from −8 down
If the reported z-score equals or exceeds 0.3, assign y. If not, assign n.

Query string: Is reported z-score greater than or equal to 0.3 here: COc1ccc(C(O)C2C=CC3C(=O)N(C)C(=O)C3N2Nc2ccccc2)cc1 (stereo unspecified)
Result string: n

Query string: Is reported z-score greater than or equal to 0.3 here: CC1CC/C=C\[C@H]2OC34C=CCN(C(C)C)C(=O)[C@H]3N(C(C)CO)C(=O)[C@@H]4C2C(=O)O1 (stereo partly specified)
Result string: n

---

# key: entry, value: composite z-score
assay: small-molecule microarray binders of probe aNog, primary screen, biochemical, biotinylated probe, 635/667 nm fluorescence (AID 1115); conditions: higher = more signal;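 further: probe is biotinylated aNog protein used at 0.15 µg/mL for 1 h at 4 C; z-score combines 667 nm fluorescence of each spot with its signal to noise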
// response body must contain only the number

>  <molecule>
CC(C)(C)OC(=O)N1[C@@H](C=C(Br)Br)COC1(C)C

>  <numeric_readout>
0.0051

$$$$

Query string: Specify reported composite z-score for the molecule shown: CN1C(=O)C2C=CC(C(O)c3ccc(I)cc3)N(N(c3ccccc3)c3ccccc3)C2C1=O (centres undefined)
Result string: 0.878

Query string: Specify reported composite z-score for the molecule shown: CCCCN1CC=CC23O[C@@H]4C=CCCOC(=O)C4[C@H]2C(=O)N(CCO)[C@@H]3C1=O (some centres undefined)
Result string: -0.249

Query string: Specify reported composite z-score for the molecule shown: CC[C@@H]1C=C(C(=O)O)[C@H](c2cccc(Cl)c2)N1S(=O)(=O)c1ccc(C)cc1
Result string: 0.527

---

molecular target: NADPH oxidase 4 (Homo sapiens) (UniProt Q9NPH5); test: NOX4-dependent H2O2 signal modulators, primary screen, NOX inhibitor project, cell-based, HEK293-NOX4, tetracycline-induced, Amplex Red fluorescence (AID 1160); conditions: 45 min, higher = more signal, called active from +8 up or from −8 down
Sequence (Q9NPH5 whole entry, looked up): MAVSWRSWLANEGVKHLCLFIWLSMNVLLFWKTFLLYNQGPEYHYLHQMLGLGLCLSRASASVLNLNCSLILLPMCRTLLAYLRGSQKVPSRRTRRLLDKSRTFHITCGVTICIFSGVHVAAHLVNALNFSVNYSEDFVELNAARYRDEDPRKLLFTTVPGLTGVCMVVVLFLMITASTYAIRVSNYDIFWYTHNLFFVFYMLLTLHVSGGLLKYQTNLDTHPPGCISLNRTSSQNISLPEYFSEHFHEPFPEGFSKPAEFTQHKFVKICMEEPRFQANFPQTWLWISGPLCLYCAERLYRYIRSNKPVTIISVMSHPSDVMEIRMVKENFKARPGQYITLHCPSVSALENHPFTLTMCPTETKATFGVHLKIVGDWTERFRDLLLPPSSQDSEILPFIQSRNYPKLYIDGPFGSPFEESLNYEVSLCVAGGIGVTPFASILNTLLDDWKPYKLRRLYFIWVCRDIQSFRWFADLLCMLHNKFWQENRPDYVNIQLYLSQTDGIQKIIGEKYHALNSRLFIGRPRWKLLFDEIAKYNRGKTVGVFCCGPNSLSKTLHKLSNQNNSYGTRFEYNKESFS
If the reported z-score equals or exceeds -0.2, assign criterion met. If not, assign criterion not met.

Worked examples, 4 molecules total:
>  <line_notation>
O=C1c2ccccc2[C@](Cc2ccccc2I)(C(=O)NCCN2CCOCC2)[C@H](c2ccc(CO)cc2)N1Cc1ccccc1C(F)(F)F

>  <class_label>
criterion met

$$$$
>  <line_notation>
CC(=O)NCCCC[C@@H]1NC(=O)[C@H]2C[C@@H](C(=O)NCCCCCN)[C@@H](c3ccc(O)cc3)N2C1=O

>  <class_label>
criterion not met

$$$$
>  <line_notation>
CC(C)(C)OC(=O)CC[C@@]1(C(=O)N2CCOCC2)N=C(c2ccc(OCCCO)cc2)O[C@@H]1c1ccccc1CN=[N+]=[N-]

>  <class_label>
criterion met

$$$$
>  <line_notation>
COc1ccc([Si](C)(C)[C@@H]2[C@@H](CC(=O)N3CCC[C@H]3CO)O[C@]3(C(=O)N(Cc4cccc(N5C(=O)c6cccc7cccc5c67)c4)c4ccccc43)[C@H]2C)cc1

>  <class_label>
criterion met

$$$$

Query string: Is reported z-score greater than or equal to -0.2 here: O=C(c1ccccc1)N1Cc2ccccc2C[C@@]2(N=C(c3ccc(OCCCO)cc3)O[C@H]2c2ccccc2)C1=O
Result string: criterion met

Query string: Is reported z-score greater than or equal to -0.2 here: CCCN1C(=O)[C@@]2(c3ccc([N+](=O)[O-])cc3)CC(=O)N(C3CCCCC3)[C@@H]2c2ccc(CO)cc21
Result string: criterion not met
